TESTED_TARGET: KRAS G12D (Homo sapiens (Human), UniProt P01116, G12D)
Sequence (P01116 other isoform, or with tags, fused parts or gaps G12D): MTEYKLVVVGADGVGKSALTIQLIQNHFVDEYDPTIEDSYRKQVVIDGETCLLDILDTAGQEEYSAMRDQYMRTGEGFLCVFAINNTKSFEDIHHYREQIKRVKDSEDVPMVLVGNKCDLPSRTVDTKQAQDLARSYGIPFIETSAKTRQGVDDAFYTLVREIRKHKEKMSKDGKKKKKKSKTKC
TEST_PROTOCOL: SPR binding affinity and kinetics, GTPγS-loaded KRAS G12D
RUN_CONDITIONS: GTPγS loaded protein, geomean
PROPERTY_LABEL: log10(Kd) (log10 of the value in nM)

# COMPOUND, log10(Kd)
measured = [
    ("C=C1CN2CCC[C@@]2(COc2nc3c4c(nc(-c5c(Cl)c(C)cc6[nH]ncc56)c(F)c4n2)OC[C@@H]2COCCCN32)C1", 2.15),
    ("C=C1CN2CCC[C@@]2(COc2nc3c4c(nc(-c5c(C6CC6)c(Cl)cc6[nH]ncc56)c(F)c4n2)OC[C@@H]2COCCN32)C1", 2.40),
    ("C=C1CN2C[C@H](O)C[C@@]2(COc2nc3c4c(nc(-c5c(C6CC6)c(Cl)cc6[nH]ncc56)c(F)c4n2)OC[C@@H]2COCCCN32)C1", 0.48),
    ("COC/C=C1/CN2CCC[C@@]2(COc2nc3c4c(nc(-c5c(C6CC6)c(Cl)cc6[nH]ncc56)c(F)c4n2)OC[C@@H]2COCCCN32)C1 (relative stereo) [Example 48]", 1.54),
    ("C=C1CN2CCC[C@@]2(COc2nc3c4c(nc(-c5c(C6CC6)c(Cl)cc6[nH]ncc56)c(F)c4n2)OC[C@@H]2COCCCN32)C1", 0.00),
    ("C/C=C1/CN2CCC[C@@]2(COc2nc3c4c(nc(-c5c(C6CC6)c(Cl)cc6[nH]ncc56)c(F)c4n2)OC[C@@H]2COCCCN32)C1", 0.60),
    ("C=C1CN2CCC[C@@]2(COc2nc3c4c(nc(-c5c(C6CC6)c(Cl)cc6[nH]ncc56)c(F)c4n2)OC[C@@H]2CCCCN32)C1", 1.32),
    ("OC/C=C1\\CN2CCC[C@@]2(COc2nc3c4c(nc(-c5c(C6CC6)c(Cl)cc6[nH]ncc56)c(F)c4n2)OC[C@@H]2COCCCN32)C1", 0.30),
    ("C[C@@H]1CCCc2cc3[nH]ncc3c(-c3nc4c5c(nc(OC[C@@]67CCCN6C[C@H](F)C7)nc5c3F)N3CCCOC[C@H]3CO4)c21", 0.48),
    ("C=C1CN2C[C@@H](O)C[C@@]2(COc2nc3c4c(nc(-c5c(C6CC6)c(Cl)cc6[nH]ncc56)c(F)c4n2)OC[C@@H]2COCCCN32)C1", 0.48),
    ("F/C=C1\\CN2CCC[C@@]2(COc2nc3c4c(nc(-c5c(C6CC6)c(Cl)cc6[nH]ncc56)c(F)c4n2)OC[C@@H]2COCCCN32)C1", 0.48),
]

###

System: H358 (non-small cell lung cancer cell line)
TEST_PROTOCOL: KRAS Cell Titer Glo (CTG) cell proliferation assay, H358
Assay type: cell-based
RUN_CONDITIONS: Homo sapiens, NCI-H358, 168 h; H358 cells, 7-day CTG, geomean IC50
Procedure: The CellTiter-Glo® (CTG) Luminescent Cell Viability Assay is a homogeneous method of determining the number of viable cells in culture based on quantitation of the ATP present, an indicator of metabolically active cells. […] Cells are grown in humidified 5% CO2 incubator at 37° C. using the culture conditions outlined below. […] Viability is determined on Day 7 using CellTiter-Glo® (CTG) Luminescent Cell Viability Assay (Promega). […]
This section presents molecules with their documented log10 IC50 values.
PROPERTY_LABEL: log10 IC50 (log10 of the value in nM)

# CPD_SMILES, PROPERTY_LABEL, ASSAY_VALUE
data = [
    ("Fc1c(-c2c(C3CC3)c(Cl)cc3[nH]ncc23)nc2c3c(nc(OC[C@@]45CCCN4CC(=C4CCOCC4)C5)nc13)N1CCCOC[C@H]1CO2", "log10 IC50", 2.46),
    ("C[C@@H]1CCCc2cc3[nH]ncc3c(-c3nc4c5c(nc(OC[C@@]67CCCN6C/C(=C/F)C7)nc5c3F)N3CCCOC[C@H]3CO4)c21", "log10 IC50", 1.38),
    ("C/C=C1\\CN2CCC[C@@]2(COc2nc3c4c(nc(-c5c6c(cc7[nH]ncc57)CCC[C@H]6C)c(F)c4n2)OC[C@@H]2COCCCN32)C1", "log10 IC50", 0.90),
    ("Fc1c(-c2c(C3CC3)c(Cl)cc3[nH]ncc23)nc2c3c(nc(OC[C@@]45CCCN4CC(=C4CC4)C5)nc13)N1CCCOC[C@H]1CO2", "log10 IC50", 1.72),
    ("OC/C=C1\\CN2CCC[C@@]2(COc2nc3c4c(nc(-c5c(C6CC6)c(Cl)cc6[nH]ncc56)c(F)c4n2)OC[C@@H]2COCCCN32)C1", "log10 IC50", 1.63),
    ("C=C1CN2CCC[C@@]2(COc2nc3c4c(nc(-c5c(C6CC6)c(Cl)cc6[nH]ncc56)c(F)c4n2)OC[C@@H]2COCCCN32)C1", "log10 IC50", 1.00),
]

###

This section presents compounds with their documented Kd values.
TESTED_TARGET: KRAS G12C (Homo sapiens (Human), UniProt P01116, G12C)
Sequence (P01116 other isoform, or with tags, fused parts or gaps G12C): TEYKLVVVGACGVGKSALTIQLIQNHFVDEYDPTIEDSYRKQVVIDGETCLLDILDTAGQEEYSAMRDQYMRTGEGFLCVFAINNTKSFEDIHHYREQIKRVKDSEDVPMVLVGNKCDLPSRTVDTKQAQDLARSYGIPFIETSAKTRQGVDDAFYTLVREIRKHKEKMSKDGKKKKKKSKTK
TEST_PROTOCOL: SPR binding affinity and kinetics, GDP-loaded KRAS G12C
RUN_CONDITIONS: GDP loaded protein, geomean

# CPD_SMILES, Kd (nM)
rows = [
    ("C=C1CN2CCC[C@@]2(COc2nc3c4c(nc(-c5c(C(F)F)ccc6[nH]ncc56)c(F)c4n2)OC[C@@H]2COCCCN32)C1", 1.81),
    ("Fc1c(-c2c(C3CC3)c(Cl)cc3[nH]ncc23)nc2c3c(nc(OC[C@@]45CCCN4C[C@H](F)C5)nc13)N1CCCOC[C@H]1CO2", 0.031),
    ("C=C1CN2CCC[C@@]2(COc2nc3c4c(nc(-c5c(C(F)(F)F)ccc6[nH]ncc56)c(F)c4n2)OC[C@@H]2COCCCN32)C1", 0.122),
    ("C=C1CN2CCC[C@@]2(COc2nc3c4c(nc(-c5c(C(F)(F)F)c(Cl)cc6[nH]ncc56)c(F)c4n2)OC[C@@H]2COCCCN32)C1", 0.017),
]

###

This section presents compounds with their documented pKd values.
TESTED_TARGET: KRAS G12V (Homo sapiens (Human), UniProt P01116, G12V)
Sequence (P01116 other isoform, or with tags, fused parts or gaps G12V): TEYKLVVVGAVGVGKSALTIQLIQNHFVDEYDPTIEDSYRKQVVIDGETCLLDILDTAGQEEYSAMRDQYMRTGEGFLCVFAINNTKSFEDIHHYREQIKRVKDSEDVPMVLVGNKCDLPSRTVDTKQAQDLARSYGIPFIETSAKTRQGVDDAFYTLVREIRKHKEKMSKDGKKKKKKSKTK
TEST_PROTOCOL: SPR binding affinity and kinetics, GTPγS-loaded KRAS G12V
RUN_CONDITIONS: GTPγS loaded protein, geomean
pKd: −log10 of the molar value.

# COMPOUND, pKd
data = [
    ("C[C@@H]1CCCc2cc3[nH]ncc3c(-c3nc4c5c(nc(OC[C@@]67CCCN6C[C@H](F)C7)nc5c3F)N3CCCOC[C@H]3CO4)c21", 8.05),
    ("C=C1CN2C[C@@H](O)C[C@@]2(COc2nc3c4c(nc(-c5c(C6CC6)c(Cl)cc6[nH]ncc56)c(F)c4n2)OC[C@@H]2COCCCN32)C1", 8.40),
    ("C=C1CN2CCC[C@@]2(COc2nc3c4c(nc(-c5c(C6(C)CC6)c(Cl)cc6[nH]ncc56)c(F)c4n2)OC[C@@H]2COCCCN32)C1", 8.70),
    ("Fc1c(-c2c(C3CC3)c(Cl)cc3[nH]ncc23)nc2c3c(nc(OC[C@@]45CCCN4C[C@H](F)C5)nc13)N1CCCOC[C@H]1CO2", 8.10),
    ("C=C1CN2CC(F)C[C@@]2(COc2nc3c4c(nc(-c5c(C6CC6)c(Cl)cc6[nH]ncc56)c(F)c4n2)OC[C@@H]2COCCCN32)C1 (stereo partly drawn)", 8.15),
    ("C=C1CN2CCC[C@@]2(COc2nc3c4c(nc(-c5c(C6CC6)c(Cl)cc6[nH]nc(Cl)c56)c(F)c4n2)OC[C@@H]2COCCCN32)C1", 8.40),
]

###

TESTED_TARGET: KRAS G12C (Homo sapiens (Human), UniProt P01116, G12C)
TEST_PROTOCOL: SPR binding affinity and kinetics, GTPγS-loaded KRAS G12C
RUN_CONDITIONS: GTPγS loaded protein, geomean

# COMPOUND, UNITS_TEXT, REPORTED_RELATION, Kd
records = [
    ("C=C1CN2CCC[C@@]2(COc2nc3c4c(nc(-c5c(Cl)c(C)cc6[nH]ncc56)c(F)c4n2)OC[C@@H]2COCCCN32)C1", "nM", "=", 176),
    ("C=C1CN2CCC[C@@]2(COc2nc3c4c(nc(-c5c([C@@H]6C[C@H]6C)c(Cl)cc6[nH]ncc56)c(F)c4n2)OC[C@@H]2COCCCN32)C1 (single isomer, unassigned)", "nM", "=", 8),
    ("C=C1CN2C[C@@H](O)C[C@@]2(COc2nc3c4c(nc(-c5c(C6CC6)c(Cl)cc6[nH]ncc56)c(F)c4n2)OC[C@@H]2COCCCN32)C1", "nM", "=", 5),
    ("C=C1CN2CCC[C@@]2(COc2nc3c4c(nc(-c5c6c(cc7[nH]ncc57)CCC[C@H]6OC)c(F)c4n2)OC[C@@H]2COCCCN32)C1 (single isomer, unassigned) [Example 56]", "nM", "=", 10),
    ("C[C@@H]1CCCc2cc3[nH]ncc3c(-c3nc4c5c(nc(OC[C@@]67CCCN6CC(=C6COC6)C7)nc5c3F)N3CCCOC[C@H]3CO4)c21", "nM", "=", 4),
    ("C/C=C1\\CN2CCC[C@@]2(COc2nc3c4c(nc(-c5c6c(cc7[nH]ncc57)CCC[C@H]6C)c(F)c4n2)OC[C@@H]2COCCCN32)C1", "nM", "=", 1),
    ("C=C1CN2CCC[C@@]2(COc2nc3c4c(nc(-c5c6c(cc7[nH]ncc57)CCCC6)c(F)c4n2)OC[C@@H]2COCCCN32)C1", "nM", "=", 47),
    ("Fc1c(-c2c(C3CC3)c(Cl)cc3[nH]ncc23)nc2c3c(nc(OC[C@]45CCCN4CC4(CC4)C5)nc13)N1CCCOC[C@H]1CO2", "nM", "=", 5),
    ("Fc1c(-c2cccc3[nH]ncc23)nc2c3c(nc(OC[C@@]45CCCN4C[C@H](F)C5)nc13)N1CCCOC[C@H]1CO2", "nM", ">", 1000),
    ("COC/C=C1/CN2CCC[C@@]2(COc2nc3c4c(nc(-c5c(C6CC6)c(Cl)cc6[nH]ncc56)c(F)c4n2)OC[C@@H]2COCCCN32)C1 (relative stereo) [Example 48]", "nM", "=", 72),
    ("C=C1CN2CCC[C@@]2(COc2nc3c4c(nc(-c5c(C6CC6)c(Cl)cc6[nH]ncc56)c(F)c4n2)OC[C@@H]2COCC[C@H](C)N32)C1", "nM", "=", 3),
    ("C=C1CN2CCC[C@@]2(COc2nc3c4c(nc(-c5c6c(cc7[nH]ncc57)CCC[C@H]6C)c(F)c4n2)OC[C@@H]2COCCCN32)C1", "nM", "=", 1),
]
